All figures here come from patent US20260258084A1.

Tested on: Pancreatin
Assay: Protease stability in simulated intestinal fluid (Pancreatin-SIF, FaSSIF)
Format: in vitro ADME
Settings: 60 min, 1 μM peptide, 37° C., read-out: FaSSIF 60 (min), remaining percent of peptide
Starred links: 1 amine or outer side, 2 acyl side, 3 side chain; linkers in the order of their positions; H or OH if unused. Positions of bridges follow the written chain, without caps; N, C: chain ends. Non-standard residues stand in square brackets, D forms with d. Residues, ends and D or L forms follow the SMILES beside them. *: point of attachment. X3 = CN(CCCCC(=O)N[C@@H](CS[*:2])C(=O)[*:1])[*:3]; Trp(7-Me) = Cc1cccc2c(C[C@H](N)C(=O)O)c[nH]c12; X1 = O=C(CCCCN[*:3])N[C@@H](CS[*:2])C(=O)[*:1]; Trp(1-Me) = Cn1cc(C[C@H](N)C(=O)O)c2ccccc21; αMeLys(Me2) = CN(C)CCCC[C@](C)(N)C(=O)O; 2Nal = N[C@@H](Cc1ccc2ccccc2c1)C(=O)O; AEF = NCCOc1ccc(C[C@H](N)C(=O)O)cc1; 3Pal = N[C@@H](Cc1cccnc1)C(=O)O; Thp = NC1(C(=O)O)CCOCC1; Me2NCH2CH2 = CN(C)CC*; Aib = CC(C)(N)C(=O)O; Ahx = NCCCCCC(=O)O; Ava = NCCCCC(=O)O; Sar = CNCC(=O)O
Measured remaining at 1 h, 1 µM of individual entries
readout-label: remaining at 1 h, 1 µM (%)

* CC(=O)N[C@H]1CCCCNC(=O)[C@@H]2CSSC[C@H](NC(=O)[C@H](CCC(N)=O)NC(=O)[C@H](Cc3c[nH]c4ccccc34)NC1=O)C(=O)N[C@@H](Cc1ccc(OCCN(C)C)cc1)C(=O)N[C@@H](Cc1ccc3ccccc3c1)C(=O)NC1(CCOCC1)C(=O)N[C@H](C(=O)N[C@@H](C)C(=O)N[C@H](CC(C)C)C(N)=O)CCC(=O)NCCCCC(=O)N2 [compound 33] (Ac-KWQCY(Me2NCH2CH2)[2Nal][Thp]EA[dL]-NH2; linker 1-4-8 via X1) | 100
* CC(=O)NCCCC[C@@H]1NC(=O)[C@H](Cc2cn(C)c3ccccc23)NC(=O)[C@@H](NC(C)=O)CCCCNC(=O)[C@@H]2CSSC[C@H](NC1=O)C(=O)N[C@@H](Cc1ccc(OCCN(C)C)cc1)C(=O)N[C@@H](Cc1ccc3ccccc3c1)C(=O)NC1(CCOCC1)C(=O)N[C@H](C(=O)N[C@@H](CC(N)=O)C(=O)N[C@@H](Cc1cccnc1)C(=O)N(C)CC(N)=O)CCC(=O)NCCCCC(=O)N2 [compound 126] (Ac-K[Trp(1-Me)]K(Ac)CY(Me2NCH2CH2)[2Nal][Thp]EN[3Pal][Sar]-NH2; linker 1-4-8 via X1) | 90
* C[C@@H](O)[C@@H]1NC(=O)[C@H](CC(N)=O)NC(=O)[C@@H]2CSSC[C@H](NC(=O)[C@H](CCC(N)=O)NC(=O)[C@H](Cc3c[nH]c4ccccc34)NC1=O)C(=O)N[C@@H](Cc1ccc(OCCN)cc1)C(=O)N[C@@H](Cc1ccc3ccccc3c1)C(=O)NC(C)(C)C(=O)N[C@H](C(=O)N[C@@H](CC(N)=O)C(=O)NCC(N)=O)CC(=O)NCCCCCC(=O)N2 [compound 9] ([Ahx]CNTWQC[AEF][2Nal][Aib]DNG-NH2; disulfide 2-7; lactam N-11) | 102
* CC(=O)N[C@H]1CCCCNC(=O)[C@@H]2CSSC[C@H](NC(=O)[C@H](CCC(N)=O)NC(=O)[C@H](Cc3c[nH]c4ccccc34)NC1=O)C(=O)N[C@@H](Cc1ccc(OCCN)cc1)C(=O)N[C@@H](Cc1ccc3ccccc3c1)C(=O)NC1(CCOCC1)C(=O)N[C@H](C(=O)N[C@@H](C)C(=O)NCC(N)=O)CCC(=O)N(C)CCCCC(=O)N2 [compound 17] (Ac-KWQC[AEF][2Nal][Thp]EAG-NH2; linker 1-4-8 via X3) | 81
* CC(=O)N[C@H]1CCCCNC(=O)[C@@H]2CSSC[C@H](NC(=O)[C@H](CCC(N)=O)NC(=O)[C@H](Cc3c[nH]c4ccccc34)NC1=O)C(=O)N[C@@H](Cc1ccc(OCCN)cc1)C(=O)N[C@@H](Cc1ccc3ccccc3c1)C(=O)NC(C)(C)C(=O)N[C@H](C(=O)N[C@@H](CC(N)=O)C(=O)N[C@@H](CC(N)=O)C(N)=O)CCC(=O)N(C)CCCCC(=O)N2 [compound 12] (Ac-KWQC[AEF][2Nal][Aib]ENN-NH2; linker 1-4-8 via X3) | 74
* CC[C@H](C)[C@H](NC(=O)[C@H](Cc1cccnc1)NC(=O)[C@H](CC(N)=O)NC(=O)[C@@H]1CCC(=O)NCCCCC(=O)N[C@H]2CSSC[C@H](NC(=O)[C@H](CCCCNC(C)=O)NC(=O)[C@H](Cc3c[nH]c4ccccc34)NC(=O)[C@H]([C@@H](C)O)NC(=O)[C@H](CC(N)=O)NC2=O)C(=O)N[C@@H](Cc2ccc(OCCN(C)C)cc2)C(=O)N[C@@H](Cc2ccc3ccccc3c2)C(=O)NC(C)(C)C(=O)N1)C(N)=O [compound 37] ([Ava]CNTWK(Ac)CY(Me2NCH2CH2)[2Nal][Aib]EN[3Pal]I-NH2; disulfide 2-7; lactam N-11) | 80
* CC(=O)N[C@H]1CCCCNC(=O)[C@@H]2CSSC[C@H](NC(=O)[C@H](CCC(N)=O)NC(=O)[C@H](Cc3c[nH]c4ccccc34)NC1=O)C(=O)N[C@@H](Cc1ccc(OCCN)cc1)C(=O)N[C@@H](Cc1ccc3ccccc3c1)C(=O)NC(C)(C)C(=O)N[C@H](C(=O)N[C@@H](C)C(=O)N[C@H](CC(C)C)C(N)=O)CCC(=O)N(C)CCCCC(=O)N2 [compound 19] (Ac-KWQC[AEF][2Nal][Aib]EA[dL]-NH2; linker 1-4-8 via X3) | 92
* CC(=O)NCCCC[C@@H]1NC(=O)[C@H](Cc2c[nH]c3c(C)cccc23)NC(=O)[C@H]([C@@H](C)O)NC(=O)[C@H](CC(N)=O)NC(=O)[C@@H]2CSSC[C@H](NC1=O)C(=O)N[C@@H](Cc1ccc(OCCN(C)C)cc1)C(=O)N[C@@H](Cc1ccc3ccccc3c1)C(=O)N[C@@](C)(CCCCN(C)C)C(=O)N[C@H](C(=O)N[C@@H](CC(N)=O)C(=O)N[C@H](CC(C)C)C(N)=O)CCC(=O)NCCCCC(=O)N2 [compound 54] ([Ava]CNT[Trp(7-Me)]K(Ac)CY(Me2NCH2CH2)[2Nal][αMeLys(Me2)]EN[dL]-NH2; disulfide 2-7; lactam N-11) | 100
* COc1ccc(C[C@@H]2NC(=O)[C@@H]3CSSC[C@H](NC(=O)[C@@H](NC(C)=O)CCCCNC(=O)C[C@@H](C(=O)N[C@@H](CC(N)=O)C(=O)N[C@@H](CC(N)=O)C(N)=O)NC(=O)C(C)(C)NC(=O)[C@H](Cc4ccc5ccccc5c4)NC2=O)C(=O)N[C@@H](CC(N)=O)C(=O)N[C@@H]([C@@H](C)O)C(=O)N[C@@H](Cc2c[nH]c4ccccc24)C(=O)N[C@@H](CCC(N)=O)C(=O)N3)cc1 [compound 7] (Ac-KCNTWQCY(Me)[2Nal][Aib]DNN-NH2; lactam 1-11; disulfide 2-7) | 84
